Quick reference for dTm among some compounds
TESTED ON: ~100 representative kinases (Homo sapiens)
Construct: Recombinant protein kinase domains with a concentration of 2 μM
PROCEDURE DETAILS: DSF 100 kinase selectivity screen;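 note: compound tested at 20 µM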
Format: binding
CONDITIONS: protein GSK3B; average of three replicates
Reply with just the number (in K).

Take a look at these entries with their results.
> print(dat)
                                   compound  result.number
1  O=C(Nc1ccccc1)C1(C(=O)Nc2cccc(-c3c[nH]c4ncnc(N5CCOCC5)c34)c2)CC1           5.87
2  O=C(Nc1ccc(F)cc1)C1(C(=O)Nc2cccc(-c3c[nH]c4ncnc(N5CCOCC5)c34)c2)CC1           6.47
3  O=C(Nc1cccc(-c2c[nH]c3ncnc(N4CCOCC4)c23)c1)C1(C(=O)Nc2ccc(F)c(Br)c2)CC1           0.00
4  Cc1ccc(C(=O)Nc2ccc(CN3CCN(C)CC3)c(C(F)(F)F)c2)cc1C#Cc1cnc2[nH]ncc2c1 [GZD-824, reference compound]           4.71
5  C[C@@H]1CN(c2cc(-c3n[nH]c4ccc(OC5(C)CC5)cc34)ncn2)C[C@H](C)O1           0.56

Please respond with reported dTm (system ~100 representative kinases (Homo sapiens)) for O=C(Nc1cccc(-c2c[nH]c3ncnc(N4CCOCC4)c23)c1)C1(C(=O)Nc2cc(Br)c(F)cc2F)CC1 .
1.43

Please respond with reported dTm (system ~100 representative kinases (Homo sapiens)) for O=C(Nc1cccc(-c2c[nH]c3ncnc(N4CCOCC4)c23)c1)c1cccn(-c2ccc(F)cc2)c1=O .
5.10

----------
TESTED ON: ~100 representative kinases (Homo sapiens, UniProt Q8TDX7)
Construct: Recombinant protein kinase domains with a concentration of 2 μM
Sequence (Q8TDX7 whole entry, the tested form may be a part): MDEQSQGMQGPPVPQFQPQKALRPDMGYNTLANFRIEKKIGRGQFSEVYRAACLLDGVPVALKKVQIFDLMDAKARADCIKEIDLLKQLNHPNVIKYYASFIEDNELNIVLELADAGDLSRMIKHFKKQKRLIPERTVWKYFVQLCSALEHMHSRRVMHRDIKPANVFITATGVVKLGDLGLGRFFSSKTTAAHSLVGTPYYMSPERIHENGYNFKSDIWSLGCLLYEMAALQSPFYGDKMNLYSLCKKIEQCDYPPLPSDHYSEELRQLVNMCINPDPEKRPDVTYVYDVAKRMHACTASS
PROCEDURE DETAILS: DSF 100 kinase selectivity screen;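 note: compound tested at 20 µM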
Assay type: binding
CONDITIONS: protein NEK7; average of three replicates
Quick reference for dTm among some compounds
Reply with just the number (in K).

Take a look at these entries with their results.
> print(dat)
                        structure.as.smiles  unit.name  result.number
1  O=C(Nc1ccc(F)cc1)C1(C(=O)Nc2cccc(-c3c[nH]c4ncnc(N5CCOCC5)c34)c2)CC1          K          -0.93
2  COc1cc(NC(=O)C2(C(=O)Nc3cccc(-c4c[nH]c5ncnc(N6CCOCC6)c45)c3)CC2)ccc1F          K           0.39
3  CCSc1nc(NC)c2c(-c3cccc(NC(=O)Nc4cc(C(C)(C)C)nn4-c4ccc(C)cc4)c3)c[nH]c2n1          K          -0.18

The record that follows has no dTm shown yet.
Given the compound CC(C)(C)c1cc(NC(=O)Nc2cccc(-c3c[nH]c4ncnc(N5CCOCC5)c34)c2)n(-c2ccc3ncccc3c2)n1 , write its reported dTm.
2.34

----------
TESTED ON: ~100 representative kinases (Homo sapiens, UniProt P54756)
Construct: Recombinant protein kinase domains with a concentration of 2 μM
Sequence (P54756 25-1037): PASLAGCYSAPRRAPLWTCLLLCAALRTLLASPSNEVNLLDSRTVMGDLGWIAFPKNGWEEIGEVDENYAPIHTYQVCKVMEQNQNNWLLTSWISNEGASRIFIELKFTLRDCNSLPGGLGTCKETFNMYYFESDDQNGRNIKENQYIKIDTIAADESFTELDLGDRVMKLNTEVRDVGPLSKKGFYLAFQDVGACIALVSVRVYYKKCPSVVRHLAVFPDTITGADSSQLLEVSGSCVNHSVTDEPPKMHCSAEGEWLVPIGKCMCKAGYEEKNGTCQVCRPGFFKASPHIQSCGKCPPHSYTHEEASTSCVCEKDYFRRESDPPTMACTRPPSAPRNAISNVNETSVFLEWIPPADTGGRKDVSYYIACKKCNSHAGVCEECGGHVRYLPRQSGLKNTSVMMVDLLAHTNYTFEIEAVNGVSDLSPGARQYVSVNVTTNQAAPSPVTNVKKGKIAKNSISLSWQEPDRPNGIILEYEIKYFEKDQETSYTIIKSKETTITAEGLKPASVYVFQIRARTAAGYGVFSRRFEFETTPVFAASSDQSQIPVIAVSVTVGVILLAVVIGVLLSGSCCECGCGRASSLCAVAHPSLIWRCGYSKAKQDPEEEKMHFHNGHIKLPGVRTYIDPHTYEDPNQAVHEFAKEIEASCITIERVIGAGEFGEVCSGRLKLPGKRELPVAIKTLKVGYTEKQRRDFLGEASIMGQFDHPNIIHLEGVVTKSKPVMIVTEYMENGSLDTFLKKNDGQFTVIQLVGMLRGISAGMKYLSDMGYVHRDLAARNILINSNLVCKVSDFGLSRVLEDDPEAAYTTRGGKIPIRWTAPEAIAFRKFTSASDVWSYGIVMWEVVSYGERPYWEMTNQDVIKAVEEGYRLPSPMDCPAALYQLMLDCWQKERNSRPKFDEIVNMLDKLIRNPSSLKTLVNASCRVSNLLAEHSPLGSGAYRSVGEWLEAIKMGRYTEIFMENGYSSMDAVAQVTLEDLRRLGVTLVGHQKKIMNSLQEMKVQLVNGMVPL
PROCEDURE DETAILS: DSF 100 kinase selectivity screen;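 note: compound tested at 20 µM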
Type: binding
CONDITIONS: Protein EPHA5; average of three replicates
Quick reference for dTm among some compounds
Reply with just the number (in K).

> print(dat)
                                   compound  unit.name  result.number
1  COc1cc(NC(=O)C2(C(=O)Nc3cccc(-c4c[nH]c5ncnc(N6CCOCC6)c45)c3)CC2)ccc1F [Compound 21]          K           0.44
2  COc1cc2c(Oc3ccc(NC(=O)C4(C(=O)Nc5ccc(F)cc5)CC4)cc3F)ccnc2cc1OCCCN1CCOCC1 [Foretinib, reference compound]          K          11.59
3  C[C@@H]1CN(c2cc(-c3n[nH]c4ccc(OC5(C)CC5)cc34)ncn2)C[C@H](C)O1 [MLi2]          K          -0.96
4  CC(C)(C)c1cccc(NC(=O)C2(C(=O)Nc3cccc(-c4c[nH]c5ncnc(N6CCOCC6)c45)c3)CC2)c1 [Compound 22]          K           2.41
5  COc1ccc(NC(=O)C2(C(=O)Nc3cccc(-c4c[nH]c5ncnc(N6CCOCC6)c45)c3)CC2)cc1 [Compound 16]          K          -0.30

Given the compound O=C(Nc1cccc(-c2c[nH]c3ncnc(N4CCOCC4)c23)c1)C1(C(=O)Nc2ccc(F)c(Br)c2F)CC1 [Compound 26] , write its reported dTm.
1.29
